Values from PubChem BioAssay AID1159580

- assay procedure: chemical genetic growth profiling, strain panel (AID 1159580);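 further: tested at 20 µM; growth read once vehicle control cultures reached saturation at 30 °C; 1 = growth at the plate median or of vehicle wells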
- assay setup: S. cerevisiae deletion strains, growth OD, locus YNL071W, strain lat1
The campaign covered roughly 5,500 compounds. About 2,000 (36%) were called active. Inconclusive results (about 18%) are left out. No stated cut-off is given here; in the data, active means normalized growth mostly below about 0.91 (no sharp cut-off); inconclusive means no clear call, values can overlap the other calls; inactive means mostly above about 0.92. The list shows a part of the results.
Write down one outcome, taken from active, inactive

### Prompt For `CN[C@H]1CC[C@@H](c2ccc(Cl)c(Cl)c2)c2ccccc21` , which call appears in the assay record?
### Response active

### Prompt Let us now turn to `O=C(CCCN1CCN(c2ccccn2)CC1)c1ccc(F)cc1`
### Response active

### Prompt Please answer likewise for `COc1ccc(-c2cc(=O)c3c(O)c(OC)c(OC)c(OC)c3o2)cc1OC`
### Response inactive

### Prompt Follow-up item: `Cc1ncc(CO)c(CO)c1O`
### Response inactive

### Prompt Next: `COc1ccc(-c2cc(=O)c3c(O)c(OC)c(O[C@H]4O[C@H](CO[C@@H]5O[C@@H](C)[C@H](O)[C@@H](O)[C@H]5O)[C@@H](O)[C@H](O)[C@H]4O)cc3o2)cc1`
### Response inactive

### Prompt Also COP(N)(=O)SC (stereo unspecified) , if possible.
### Response inactive

### Prompt And what about the molecule `CC(=O)Oc1ccccc1C(=O)Oc1ccccc1C(=O)O` ?
### Response inactive

### Prompt Same lookup for NS(=O)(=O)c1cc2c(cc1C(F)(F)F)NC(Cc1ccccc1)NS2(=O)=O (stereo unspecified) , please.
### Response inactive

### Prompt Also, `O=C(Oc1cccc2cccnc12)c1ccccc1` please.
### Response active

### Prompt What would you report for `CSc1nc(NC(C)C)nc(NC(C)C)n1` ?
### Response inactive

### Prompt Then what about the molecule `COc1nc(NC(C)C)nc(NC(C)C)n1` ?
### Response inactive

* * *

- assay procedure: chemical genetic growth profiling, strain panel (AID 1159580)
- assay setup: S. cerevisiae deletion strains, growth OD, locus YDL192W, strain arf1, stronger effect = lower value
About 2,000 (36%) of roughly 5,500 compounds were called active. Roughly 18% stayed inconclusive and do not appear here. This is one part of the list.
quantity: normalized growth
In your answer, state the number alone without any accompanying words.

### Prompt Can you look up the measured normalized growth of C[C@]12CCC3C(CC[C@]4(O)C[C@@H](O)CC[C@]34C=O)[C@@]1(O)CCC2C1=CC(=O)OC1 (stereo partly drawn) for me?
### Response 0.976

### Prompt Ok, now C[C@H]1O[C@@H](O[C@H]2[C@@H](O)C[C@H](O[C@H]3[C@@H](O)C[C@H](O[C@H]4CC[C@]5(C)C6CC[C@]7(C)[C@@H](C8=CC(=O)OC8)CC[C@]7(O)C6CC[C@@H]5C4)O[C@@H]3C)O[C@@H]2C)C[C@H](O)[C@@H]1O (stereo partly drawn)
### Response 1

### Prompt Same read-out for COC1C(O)C(O[C@H]2CC[C@]3(C=O)C4C(CC[C@]3(O)C2)[C@@]2(O)CC[C@H](C3=CC(=O)OC3)[C@@]2(C)C[C@H]4OC(C)=O)OC(C)C1OC(C)=O (stereo partly drawn) ?
### Response 1.03

### Prompt Now consider CC1(C)Oc2ccc3ccc(=O)oc3c2CC1O (stereo not drawn) .
### Response 1.02

### Prompt Moving on to the next molecule: `CC(=O)O[C@@H]1c2c(ccc3ccc(=O)oc23)OC(C)(C)[C@@H]1OC(=O)CC(C)C`
### Response 1

### Prompt Follow-up entry: CC[C@H]1CN2CCC1C[C@@H]2[C@@H](O)c1ccnc2ccc(OC)cc12 (stereo partly drawn)
### Response 1.01

### Prompt And then `C/C=C(/C)C(=O)O[C@@H]1Cc2c(ccc3ccc(=O)oc23)OC1(C)C` , what is it?
### Response 0.977

### Prompt Next molecule: C[C@@H]1O[C@@H](O[C@H]2CC[C@]3(C=O)C4CC[C@]5(C)[C@@H](C6=CC(=O)OC6)CC[C@]5(O)C4CC[C@]3(O)C2)[C@H](O)[C@H](O)[C@H]1O (stereo partly drawn)
### Response 0.99

* * *

- assay procedure: chemical genetic growth profiling, strain panel (AID 1159580);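 further: tested at 20 µM; growth read once vehicle control cultures reached saturation at 30 °C; 1 = growth at the plate median or of vehicle wells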
- assay setup: S. cerevisiae deletion strains, growth OD, locus YMR078C, strain ctf18
The whole screen tested about 5,500 compounds, of which about 2,000 (36%) were called active. About 18% were inconclusive and are not listed. Rule as the data show it: active = normalized growth mostly below about 0.91 (no sharp cut-off); inconclusive = no clear call, values can overlap the other calls; inactive = mostly above about 0.92. The list shows a part of the results.
Allowed answers: true = active, false = inactive

### Prompt I'd appreciate the recorded outcome for CC1(C)S[C@@H]2C(N3C(=O)[C@@H](c4ccccc4)NC3(C)C)C(=O)N2[C@H]1C(=O)O (stereo partly drawn) from this test.
### Response false

### Prompt Then what about the compound `Nc1nc(/C(=C/CC(=O)O)C(=O)N[C@@H]2C(=O)N3C(C(=O)O)=CCS[C@H]23)cs1` ?
### Response false

### Prompt Next up: `NC(=O)c1cc([N+](=O)[O-])cc([N+](=O)[O-])c1`
### Response false

### Prompt Another: CSCCC(N)C(=O)NC(CC(C)C)C(=O)NC(Cc1ccccc1)C(=O)O (stereo not drawn)
### Response false

### Prompt Another compound to check: O=c1c(O)cccc2c(C3Oc4cc(O)cc(O)c4CC3O)cc(O)c(O)c12 (stereo not drawn)
### Response true

### Prompt Another compound: `COc1cc(O)c2c(=O)cc(-c3ccc(O)cc3)oc2c1`
### Response false

### Prompt What about this compound? NC[C@@H]1O[C@H](O[C@@H]2[C@@H](CO)OC(O[C@@H]3[C@@H](O)[C@H](N)C[C@H](N)[C@H]3O[C@H]3O[C@H](CO)[C@@H](O)[C@H](O)[C@H]3N)[C@@H]2O)[C@H](N)[C@@H](O)[C@@H]1O (stereo partly drawn)
### Response false

### Prompt Next compound: `O=c1c(O)cc([C@H]2Oc3cc(O)cc(O)c3C[C@H]2O)cc2c([C@H]3Oc4cc(O)cc(O)c4C[C@H]3O)cc(O)c(O)c12`
### Response false

* * *

- assay procedure: chemical genetic growth profiling, strain panel (AID 1159580);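 further: tested at 20 µM; growth read once vehicle control cultures reached saturation at 30 °C; 1 = growth at the plate median or of vehicle wells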
- assay setup: S. cerevisiae deletion strains, growth OD, locus YJL157C, strain FAR1
The campaign covered roughly 5,500 compounds. About 2,000 (36%) were called active. Inconclusive results (about 18%) are left out. No stated cut-off is given here; in the data, active means normalized growth mostly below about 0.91 (no sharp cut-off); inconclusive means no clear call, values can overlap the other calls; inactive means mostly above about 0.92. This is one part of the list.
Thanks in advance; please answer with one of these: active, inactive

### Prompt State the result this test recorded for `Cc1ccc(OS(=O)(=O)c2c(Cl)sc(Cl)c2Br)c([N+](=O)[O-])n1` .
### Response inactive

### Prompt Also need `COC(=O)/C=C1/OC(c2ccc(OC)cc2)=CC1=O` , thanks.
### Response active

### Prompt Consider next the compound `O=C(NC(=S)NNc1ncc(C(F)(F)F)cc1Cl)c1cccs1` in the same way.
### Response active

* * *

- assay procedure: chemical genetic growth profiling, strain panel (AID 1159580);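 further: tested at 20 µM; growth read once vehicle control cultures reached saturation at 30 °C; 1 = growth at the plate median or of vehicle wells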
- assay setup: S. cerevisiae deletion strains, growth OD, strain TSCII
The campaign covered roughly 5,500 compounds. About 2,000 (36%) were called active. About 18% were inconclusive and are not listed. No stated cut-off is given here; in the data, active means normalized growth mostly below about 0.91 (no sharp cut-off); inconclusive means no clear call, values can overlap the other calls; inactive means mostly above about 0.92. The list shows a part of the results.
Please state which outcome applies, choosing from true = active, false = inactive

### Prompt # fetch the recorded call for `N/C(=N/OC(=O)Nc1cccc(C(F)(F)F)c1)c1ccc(OC(F)(F)F)cc1` here
### Response false

### Prompt Same for `O=C1Nc2ccccc2/C1=C\c1c[nH]c2ccccc12`
### Response true

### Prompt Another compound to look at: `Cc1ccc(OS(=O)(=O)c2c(Cl)sc(Cl)c2Br)c([N+](=O)[O-])n1`
### Response false

### Prompt And for `Cc1cc(Br)c(O)c(/C=N\NC(=S)NC(C)(C)C)c1` ?
### Response false

### Prompt Try this compound too: `O=c1cc(CSc2ccc(Cl)cc2)c2ccc(O)cc2o1`
### Response false

### Prompt // repeat for `CN1/C(=C/C=C/c2ccc3ccccc3[n+]2C)C=Cc2ccccc21` and report
### Response true

### Prompt Also check `FC(F)(F)Sc1ccc(OCc2n[nH]c(=S)n2-c2ccccc2)cc1`
### Response false

### Prompt Please give the result for `C/C(=N/NC(N)=S)c1csc(-c2ccccc2)n1` too.
### Response false

### Prompt Quick one: `COc1ccc(N=C2SCC(c3ccc(C)cc3)=NN2CCO)cc1`
### Response false

### Prompt Same again, this time with `Cc1cc(-c2onc(C)c2C(=O)Sc2ccccc2)no1`
### Response false

### Prompt Lookup `COC(=O)/C=C1/OC(c2ccc(OC)cc2)=CC1=O`
### Response true

### Prompt Item: `N#Cc1ccc2[nH]cc(CCN(Cc3ccccc3)Cc3ccccc3)c2c1`
### Response false

### Prompt Field entry: `CC1(C)C=Cc2cc(/C(N)=N\OC(=O)Nc3cccc(C(F)(F)F)c3)ccc2O1`
### Response false

### Prompt Moving on to the next compound: `O=C1/C(=C/c2c[nH]c3ccccc23)CSc2ccccc21`
### Response false

### Prompt Then this compound: `O=C(Nc1ccc(SC(F)(F)F)cc1)Nc1ccc(Oc2cccc(C(F)(F)F)c2)nc1`
### Response false

### Prompt Lookup `O=C(Nc1cc2ccccc2s1)N1CCN(Cc2c(F)cccc2Cl)CC1`
### Response false

### Prompt Would you mind doing Clc1cccc(Cl)c1C1CC(c2ccccc2)=Nc2ccccc2S1 (stereo not drawn) as well?
### Response false

### Prompt One more compound: `O=C(NNc1cc(C(F)(F)F)cc(C(F)(F)F)c1)c1cnc2n(c1=O)CCS2`
### Response false

### Prompt How about `O=C(Nc1ccccc1C(=O)O)OCC1c2ccccc2-c2ccccc21` ?
### Response false

### Prompt Queued: COc1ccccc1N1CCN(C(=O)C(C)c2ccc(CC(C)C)cc2)CC1 (stereo not drawn)
### Response false

### Prompt Record: `FC(F)(F)Oc1ccc(OCc2n[nH]c(=S)n2-c2ccc(Cl)cc2)cc1`
### Response false

### Prompt Please give the result for `CCCCCCCCCCCCSc1ncn[nH]1` too.
### Response false

### Prompt Also `O=S(=O)(c1cc(Cl)ccc1Cl)N1CCc2ccccc2C1` ?
### Response false
